Test: MM1S myeloma cell viability, profiling panel, resazurin fluorescence, basal, 24 h, PK04 Diversity Set (AID 1174);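 also: MM1S multiple myeloma cell line; test concentration not given here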
Details: higher = more signal, called active from +8 up or from −8 down
The source made the active and inactive calls.
# z-score per record follows

Solved entries:
| compound | z-score |
| --- | --- |
| COC(=O)[C@@]1(Cc2ccc(OC)cc2)[C@H]2c3cc(C(=O)N4CCCC4)n(CCc4c[nH]c5cc(F)ccc45)c3C[C@H]2CN1C(=O)c1ccccc1 | -0.502 (inactive) |
| CCCCC(O)C1C=CC2C(=O)N(C3CCCCC3)C(=O)C2N1Nc1ccc(OC)cc1 (stereo not drawn) | -0.496 (inactive) |

Then there is this compound:
QUERY: Please look up its z-score: C=CCOC(=O)[C@H]1[C@@H]2C(=O)O[C@@H](c3ccccc3)[C@@H](c3ccccc3)N2[C@@H](c2ccc(OCCOC(=O)[C@@H]3C[C@@H]4C(=O)N5CCC[C@H]5C(=O)N4[C@@H]3c3ccc(O)cc3)cc2)[C@]12C(=O)Nc1ccccc12
RESULT: 0.841 (inactive)
